molecular target: NOS1, P29475; experiment: holdup assay; parameters: key: below the threshold = too weak to quantify, mostly under pKd 3.1 to 4; conditions: plain residues with an end cap or a label only (N-terminal biotin on a linker: ado-ado)
Sequence (P29475 9-101): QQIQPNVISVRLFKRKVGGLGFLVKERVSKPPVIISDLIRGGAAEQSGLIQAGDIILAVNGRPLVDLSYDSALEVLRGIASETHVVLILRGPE

[
  {
    "BINDER": "RSPVATATSC [DUSP5, Q16690]",
    "pKd": "below the threshold"
  },
  {
    "BINDER": "GSQSQVETEA [FKBP4, Q02790]",
    "pKd": "below the threshold"
  },
  {
    "BINDER": "KPDKQEEFYA [SDC3, O75056]",
    "pKd": "below the threshold"
  }
]
